Values from the supplement of paper PMC11208160

- assayProtocol: recombinant UMI read abundance after kanamycin selection (control-corrected) (log10(CPM+1)); higher = more efficient recombination; extreme values may be limits of the assay; sequences stand for … in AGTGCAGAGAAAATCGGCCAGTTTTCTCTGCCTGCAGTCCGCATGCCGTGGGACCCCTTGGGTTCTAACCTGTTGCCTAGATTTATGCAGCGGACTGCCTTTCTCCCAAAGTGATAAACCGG…AGGTTGGTTTCACT; site = the 11-nt donor;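 also: IS621 bridge recombinase in Escherichia coli cells against a fixed T5 target plasmid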
Classify by measured recombinant UMI read abundance (log10): 1.0 if it is equal to or exceeds 0.3, 0.0 if it is smaller.

See these solved cases before continuing.
- residues: "CACCGCCCATGGACCGGTTTTCCCGGTAATCCGTATTTGTT (site CACGGCCCTAA)"
  classification: 0.0
- residues: "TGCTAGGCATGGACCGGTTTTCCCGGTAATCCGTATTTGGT (site TTCTAGGCTAC)"
  classification: 0.0
- residues: "TCAGAAACATGGACCGGTTTTCCCGGTAATCCGTATTTGCG (site TCAGATACTCG)"
  classification: 0.0
- residues: "CACTCCTCATGGACCGGTTTTCCCGGTAATCCGTATTTGCT (site CACTCCTCTTG)"
  classification: 1.0
- residues: "ACGCAACCATGGACCGGTTTTCCCGGTAATCCGTATTTGAA (site ACGCAACCTTT)"
  classification: 0.0

Problem: Confirm if recombinant UMI read abundance (log10) reported for the sequence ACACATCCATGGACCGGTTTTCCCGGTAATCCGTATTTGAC (site ACAAATCCTGT) is 0.3 or above.
Solution: 0.0

Problem: Let us now turn to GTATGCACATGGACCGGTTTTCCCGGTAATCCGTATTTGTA (site GTATTCACTTA)
Solution: 1.0

Problem: Same thing, different sequence: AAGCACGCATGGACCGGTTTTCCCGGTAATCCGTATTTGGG (site AAGCACGCTAC)
Solution: 0.0
